# testedOn: T1, PSA(67-79)-G0F (human, also: Asn3 N-glycosylated with octasaccharide carrying alpha-1,6 core fucose (G0F))
# T1 construct: Synthetic glycopeptide (3.9 kDa as SPR analyte), made on Sieber Amide resin; For the ELISAs a biotinylated form was used (glutamic acid derivative with a PEG3-biotin side chain at the N-terminus); also called PSA(67-79)-GOF; glycopeptide of Formula Ib
# T1 peptide: IRN(G0F)KSVILLGRHS-NH2
# procedureDetails: SPR, Biacore 8k, 37 C, antibody captured by anti-rabbit Fc, peptide as analyte, Langmuir fit
Ends that are not written are not given here. * marks the point of attachment. G0F = octasaccharide N-glycan with alpha-1,6 core fucose (Formula Ib, linkages Formula Ic), CC(=O)N[C@@H]1[C@@H](O)[C@H](O[C@@H]2O[C@H](CO)[C@@H](O[C@@H]3O[C@H](CO[C@H]4O[C@H](CO)[C@@H](O)[C@H](O)[C@@H]4O[C@@H]4O[C@H](CO)[C@@H](O)[C@H](O)[C@H]4NC(C)=O)[C@@H](O)[C@H](O[C@H]4O[C@H](CO)[C@@H](O)[C@H](O)[C@@H]4O[C@@H]4O[C@H](CO)[C@@H](O)[C@H](O)[C@H]4NC(C)=O)[C@@H]3O)[C@H](O)[C@H]2NC(C)=O)[C@@H](CO[C@@H]2O[C@@H](C)[C@@H](O)[C@@H](O)[C@@H]2O)O[C@H]1*
reportedProperty: koff (s⁻¹)
Field format: number, assumed s⁻¹, no unit text.

Consider the reported koff for these binders:
binder: 2E9 (antibody, V domains shown, Rabbit monoclonal IgG (150 kDa); also called anti-1,6fucPSA antibody 2E9) VH: QSLEESGGDLVKPGASLTLTCTASGFSFSAGYDMCWVRQAPGKGLEWIACIYADGSGSTYYANWAKGRFTISLASSTTVTLQMTGLTAADTATYFCAREGADGPDYGYAAFSLWGPGTLVTVSS VL: DVVMTQTPASVEAAVGGTVTIKCQASQSISNYFSWYQQKPGQPPKLLIYKASTLASGVPSRFKGSGSGTEFTLTISDLECADAATYYCQSFYGSVTSDYGGFAFGGGTEVVVK
reading: 0.00112
//
binder: 2C11 (antibody, V domains shown, Rabbit monoclonal IgG (150 kDa); also called anti-1,6fucPSA antibody 2C11) VH: QSLEESGGGLVKPGGTLTLTCKASGFSFGPGYDMCWVRQAPGKGLEWIACIYADGSDNTYYASWARGRFTISKTSSTTVTLQMTRLTAADTATYFCAREGADNPNYGYAALRLWGPGTLVTVSS VL: DIVMTQTPASVEAPVGGTVTIKCQASESISSYLAWYQQKPGQPPKLLIYKTSTLASGVPSRFKGSGSGTEFTLTISDLECANAATYYCQSFYGSVSSDYGGFAFGGGTEVVVK
reading: 0.00078

Lookup: Please supply the value of reported koff for the item 2H9 (antibody, V domains shown, Rabbit monoclonal IgG (150 kDa); also called anti-1,6fucPSA antibody 2H9) VH: QSLEESGGDLVKPGASLTLTCTASGFSFSSGYDMCWVRQAPGKGPEWIACIYADGSGSTYYASWAKGRFTISMTSSTTVTLQMTRLTAADTATYFCAREGADDPNYGYAALRLWGPGTLVTVSS VL: DIVMTQTPASVEAAVGGTVTIKCQASQSISNYLAWYQQKPGQPPKLLIYKTSTLASGVPSRFKGSGSGTEFTLTISDLECADAATYYCQSFYGSVSSDYGGFAFGGGTEVVVK
Found: 0.00105
